- Experiment Notes: Volume of distribution at steady state in C57BL/6 mouse at 1 mg/kg, iv measured for 0.5 to 12 htr by LC-MS/MS analysis
- Assay type: ADME, organism-based
- Measurement Setup: in vivo, time 0.5-12 hrs, read-out: Vdss
Property: Vd

Q: For the molecule CC[C@@H]1C(=O)N(C)c2cnc(Nc3cc(N4CCN(C)CC4)cc(Cl)c3OCCCO)nc2N1C1CCCC1 , give its reported Vd.
Ans: 3.6 L/kg

Q: Specify reported Vd for the molecule shown: CC[C@@H]1C(=O)N(C)c2cnc(Nc3cc(N4CCN(C)CC4)ccc3OCCCO)nc2N1C1CCCC1
Ans: 2.5 L/kg

Q: Identify Vd associated with the molecule CC[C@@H]1C(=O)N(C)c2cnc(Nc3ccc(C(=O)NC4CCN(C)CC4)cc3OC)nc2N1C1CCCC1
Ans: 6 L/kg

---

- Target System: Cytochrome P450 2C8 (Homo sapiens)
- Sequence (P10632 whole entry): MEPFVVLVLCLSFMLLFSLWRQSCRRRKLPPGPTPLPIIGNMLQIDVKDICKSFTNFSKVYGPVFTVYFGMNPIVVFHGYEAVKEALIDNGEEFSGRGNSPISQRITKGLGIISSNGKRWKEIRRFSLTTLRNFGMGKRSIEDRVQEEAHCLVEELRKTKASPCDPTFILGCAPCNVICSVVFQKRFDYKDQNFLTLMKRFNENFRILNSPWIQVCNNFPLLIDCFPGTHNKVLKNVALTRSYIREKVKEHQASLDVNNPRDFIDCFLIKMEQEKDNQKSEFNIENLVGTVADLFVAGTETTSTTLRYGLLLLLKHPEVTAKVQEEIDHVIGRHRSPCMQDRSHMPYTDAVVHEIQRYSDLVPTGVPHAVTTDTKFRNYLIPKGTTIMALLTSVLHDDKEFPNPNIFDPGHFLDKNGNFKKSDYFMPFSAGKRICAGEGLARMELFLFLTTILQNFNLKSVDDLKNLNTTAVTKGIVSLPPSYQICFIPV
Property: IC50

Q: For the molecule CC[C@@H]1C(=O)N(C)c2cnc(Nc3cc(N4CCN(C)CC4)cc(Cl)c3OCCCO)nc2N1C1CCCC1 , give its reported IC50.
Ans: > 10 µM

---

- Target System: Cytochrome P450 2D6 (Homo sapiens, UniProt P10635)
- Sequence (P10635 whole entry): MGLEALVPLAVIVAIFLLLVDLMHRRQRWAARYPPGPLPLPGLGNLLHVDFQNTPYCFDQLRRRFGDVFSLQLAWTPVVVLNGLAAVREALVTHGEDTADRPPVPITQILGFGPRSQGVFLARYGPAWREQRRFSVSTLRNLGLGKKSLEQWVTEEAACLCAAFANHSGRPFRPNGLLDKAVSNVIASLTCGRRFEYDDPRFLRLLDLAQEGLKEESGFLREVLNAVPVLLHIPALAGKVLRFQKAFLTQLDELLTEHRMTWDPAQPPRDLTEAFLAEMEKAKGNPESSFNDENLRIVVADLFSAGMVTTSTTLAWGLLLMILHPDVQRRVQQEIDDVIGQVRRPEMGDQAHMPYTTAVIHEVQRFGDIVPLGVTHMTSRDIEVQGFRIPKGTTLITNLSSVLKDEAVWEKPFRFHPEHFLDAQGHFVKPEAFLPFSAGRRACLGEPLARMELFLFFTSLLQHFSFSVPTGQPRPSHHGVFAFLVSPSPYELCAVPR
Property: IC50

Q: Provide IC50, tested on Cytochrome P450 2D6 (Homo sapiens, UniProt P10635), for CC[C@@H]1C(=O)N(C)c2cnc(Nc3cc(N4CCN(C)CC4)cc(Cl)c3OCCCO)nc2N1C1CCCC1 .
Ans: > 10 µM

---

- Target System: Cytochrome P450 2C19 (Homo sapiens, UniProt P33261)
- Sequence (P33261 whole entry): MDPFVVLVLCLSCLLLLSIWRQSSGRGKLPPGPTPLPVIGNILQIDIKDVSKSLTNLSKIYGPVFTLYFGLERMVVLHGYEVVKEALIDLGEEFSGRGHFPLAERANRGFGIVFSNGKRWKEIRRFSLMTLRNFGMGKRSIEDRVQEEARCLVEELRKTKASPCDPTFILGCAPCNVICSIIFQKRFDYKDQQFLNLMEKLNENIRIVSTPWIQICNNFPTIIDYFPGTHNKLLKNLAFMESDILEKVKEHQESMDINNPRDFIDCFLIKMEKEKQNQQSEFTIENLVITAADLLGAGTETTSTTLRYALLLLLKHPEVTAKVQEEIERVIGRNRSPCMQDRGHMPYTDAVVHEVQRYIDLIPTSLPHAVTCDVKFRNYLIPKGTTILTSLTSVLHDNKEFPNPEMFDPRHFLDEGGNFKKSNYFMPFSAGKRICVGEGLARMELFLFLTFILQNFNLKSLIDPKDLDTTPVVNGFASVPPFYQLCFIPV
Property: IC50 (nM)
Lab book: enter the figure in nM, no units written.

Q: Answer with the recorded IC50 for the molecule listed here: CC[C@@H]1C(=O)N(C)c2cnc(Nc3cc(N4CCN(C)CC4)cc(Cl)c3OCCCO)nc2N1C1CCCC1
Ans: 1900

---

Would you mind telling me the reported AUC(0-t) of each entry?
- Experiment Notes: AUC (0 to t) in C57BL/6 mouse at 1 mg/kg, iv measured for 0.5 to […] htr by LC-MS/MS analysis
- Type: ADME, organism-based
- Measurement Setup: in vivo, time 0.5-12 hrs
// note: answer is a bare numeric in ng·h/mL

Q: Provide measured AUC(0-t) value, entry: CC[C@@H]1C(=O)N(C)c2cnc(Nc3ccc(C(=O)NC4CCN(C)CC4)cc3OC)nc2N1C1CCCC1
Ans: 116

Q: Give the value of AUC(0-t) reported for the following: CC[C@@H]1C(=O)N(C)c2cnc(Nc3cc(N4CCN(C)CC4)ccc3OCCCO)nc2N1C1CCCC1
Ans: 226

Q: Write down AUC(0-t) measured for item CC[C@@H]1C(=O)N(C)c2cnc(Nc3cc(N4CCN(C)CC4)cc(Cl)c3OCCCO)nc2N1C1CCCC1
Ans: 181

---

- Target System: Serine/threonine-protein kinase PLK3 (Homo sapiens, UniProt Q9H4B4)
- Sequence (Q9H4B4 whole entry): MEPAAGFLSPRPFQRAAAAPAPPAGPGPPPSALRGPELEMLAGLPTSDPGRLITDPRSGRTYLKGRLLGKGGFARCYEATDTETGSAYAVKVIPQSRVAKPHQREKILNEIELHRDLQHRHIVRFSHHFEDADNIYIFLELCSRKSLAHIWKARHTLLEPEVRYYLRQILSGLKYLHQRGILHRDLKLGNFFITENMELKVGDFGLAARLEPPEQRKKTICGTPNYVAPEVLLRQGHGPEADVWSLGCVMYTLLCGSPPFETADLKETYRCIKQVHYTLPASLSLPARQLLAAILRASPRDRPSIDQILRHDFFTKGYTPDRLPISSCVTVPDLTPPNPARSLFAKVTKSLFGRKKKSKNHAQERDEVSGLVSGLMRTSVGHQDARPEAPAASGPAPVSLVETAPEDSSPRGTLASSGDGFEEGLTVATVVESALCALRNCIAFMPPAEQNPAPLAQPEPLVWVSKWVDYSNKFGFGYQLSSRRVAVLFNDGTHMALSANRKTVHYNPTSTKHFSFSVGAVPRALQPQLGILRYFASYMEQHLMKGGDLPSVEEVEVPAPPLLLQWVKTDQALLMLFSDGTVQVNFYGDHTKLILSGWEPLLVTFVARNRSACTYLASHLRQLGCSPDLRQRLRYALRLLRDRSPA
Property: IC50

Q: Could you please provide reported IC50 for CC[C@@H]1C(=O)N(C)c2cnc(Nc3cc(N4CCN(C)CC4)cc(F)c3OCCO)nc2N1C1CCCC1 ? Thanks!
Ans: 3.22 µM

Q: Given CC[C@@H]1C(=O)N(C)c2cnc(Nc3cc(N4CCN(CC)CC4)ccc3OCCO)nc2N1C(C)C , respond with its IC50.
Ans: > 10 µM

Q: Quote IC50 reported for CC[C@@H]1C(=O)N(C)c2cnc(Nc3cc(N4CCN(C)CC4)cc(F)c3OCCCO)nc2N1C1CCCC1 please.
Ans: 2 µM

Q: Could you please provide reported IC50 for CC[C@@H]1C(=O)N(C)c2cnc(Nc3cc(N4CCN(C)CC4)cc(F)c3OC)nc2N1C1CCCC1 ? Thanks!
Ans: 1.18 µM

Q: Respond only with IC50 recorded for CC[C@@H]1C(=O)N(C)c2cnc(Nc3cc(N4CCN(C)CC4)ccc3OCCO)nc2N1C(C)C
Ans: > 10 µM

Q: Note down IC50 recorded for CC[C@@H]1C(=O)N(C)c2cnc(Nc3cc(N(C)CCN(C)C)cc(F)c3OCCCO)nc2N1C1CCCC1
Ans: 1.46 µM

Q: Annotate the molecule CC[C@@H]1C(=O)N(C)c2cnc(Nc3cc(N4CCN(C)CC4)ccc3OCCCO)nc2N1C(C)C with its measured IC50.
Ans: > 10 µM

Q: Quick one: give measured IC50 for CC[C@@H]1C(=O)N(C)c2cnc(Nc3cc(N4CCN(C)CC4)cc(F)c3OCCCO)nc2N1C(C)C
Ans: 9.37 µM

---

Notes on IC50 obtained with Serine/threonine-protein kinase PLK2 (Homo sapiens).
Sequence (Q9NYY3 whole entry): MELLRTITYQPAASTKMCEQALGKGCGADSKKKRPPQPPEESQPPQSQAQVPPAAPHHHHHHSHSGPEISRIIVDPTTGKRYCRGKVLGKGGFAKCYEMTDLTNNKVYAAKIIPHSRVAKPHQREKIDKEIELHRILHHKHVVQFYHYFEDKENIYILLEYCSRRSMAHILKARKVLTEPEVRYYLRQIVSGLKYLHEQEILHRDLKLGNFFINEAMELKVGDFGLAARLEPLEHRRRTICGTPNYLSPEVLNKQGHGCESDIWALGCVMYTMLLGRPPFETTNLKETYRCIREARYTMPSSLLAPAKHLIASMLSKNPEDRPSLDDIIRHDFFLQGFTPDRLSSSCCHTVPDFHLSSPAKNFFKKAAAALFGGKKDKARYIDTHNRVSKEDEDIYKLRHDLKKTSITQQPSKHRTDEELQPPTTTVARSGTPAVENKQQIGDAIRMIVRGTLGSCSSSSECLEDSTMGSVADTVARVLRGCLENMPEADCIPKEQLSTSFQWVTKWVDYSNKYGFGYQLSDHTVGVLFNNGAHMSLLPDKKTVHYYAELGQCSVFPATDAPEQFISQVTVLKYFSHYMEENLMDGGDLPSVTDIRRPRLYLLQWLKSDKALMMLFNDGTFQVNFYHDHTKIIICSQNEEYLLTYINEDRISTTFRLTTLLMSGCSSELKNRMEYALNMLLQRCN

Q: Return reported IC50 for target or system Serine/threonine-protein kinase PLK2 (Homo sapiens), item CC[C@@H]1C(=O)N(C)c2cnc(Nc3cc(N4CCN(CC)CC4)ccc3OCCO)nc2N1C1CCCC1 .
Ans: > 10 µM

Q: State IC50 (Serine/threonine-protein kinase PLK2 (Homo sapiens)) of CC[C@@H]1C(=O)N(C)c2cnc(Nc3cc(N4CCC(N)CC4)ccc3OC)nc2N1C1CCCC1 .
Ans: 0.505 µM

Q: Report IC50 under test system Serine/threonine-protein kinase PLK2 (Homo sapiens) for CC[C@@H]1C(=O)N(C)c2cnc(Nc3cc(N4CCC(N)CC4)ccc3OCCO)nc2N1C1CCCC1 .
Ans: > 10 µM

Q: Please look at CC[C@@H]1C(=O)N(C)c2cnc(Nc3cc(N4CCN(C)CC4)cc(Cl)c3OCCCO)nc2N1C(C)C and tell me its recorded IC50 on Serine/threonine-protein kinase PLK2 (Homo sapiens).
Ans: > 10 µM

Q: Under Serine/threonine-protein kinase PLK2 (Homo sapiens): report IC50 of CC[C@@H]1C(=O)N(C)c2cnc(Nc3cc(N4CCN(C)CC4)ccc3OCCO)nc2N1C(C)C .
Ans: > 10 µM

Q: Report IC50 from Serine/threonine-protein kinase PLK2 (Homo sapiens) testing of CC[C@@H]1C(=O)N(C)c2cnc(Nc3cc(N4CCN(C)CC4)ccc3OCCO)nc2N1C1CCCC1
Ans: > 10.1 µM

Q: Provide IC50, tested on Serine/threonine-protein kinase PLK2 (Homo sapiens), for CC[C@@H]1C(=O)N(C)c2cnc(Nc3cc(N4CCC(NC(=O)OC(C)(C)C)CC4)ccc3OC)nc2N1C1CCCC1 .
Ans: 3.37 µM

Q: Write IC50 of CC[C@@H]1C(=O)N(C)c2cnc(Nc3cc(N4CCN(C)CC4)cc(F)c3OCCO)nc2N1C(C)C ; system used: Serine/threonine-protein kinase PLK2 (Homo sapiens)
Ans: > 10 µM

Q: Under Serine/threonine-protein kinase PLK2 (Homo sapiens), report IC50 for CC[C@@H]1C(=O)N(C)c2cnc(Nc3cc(N(C)CCN(C)C)cc(F)c3OCCCO)nc2N1C1CCCC1
Ans: 5.87 µM

---

- Target System: Serine/threonine-protein kinase PLK1 (Homo sapiens, UniProt P53350)
- Sequence (P53350 whole entry): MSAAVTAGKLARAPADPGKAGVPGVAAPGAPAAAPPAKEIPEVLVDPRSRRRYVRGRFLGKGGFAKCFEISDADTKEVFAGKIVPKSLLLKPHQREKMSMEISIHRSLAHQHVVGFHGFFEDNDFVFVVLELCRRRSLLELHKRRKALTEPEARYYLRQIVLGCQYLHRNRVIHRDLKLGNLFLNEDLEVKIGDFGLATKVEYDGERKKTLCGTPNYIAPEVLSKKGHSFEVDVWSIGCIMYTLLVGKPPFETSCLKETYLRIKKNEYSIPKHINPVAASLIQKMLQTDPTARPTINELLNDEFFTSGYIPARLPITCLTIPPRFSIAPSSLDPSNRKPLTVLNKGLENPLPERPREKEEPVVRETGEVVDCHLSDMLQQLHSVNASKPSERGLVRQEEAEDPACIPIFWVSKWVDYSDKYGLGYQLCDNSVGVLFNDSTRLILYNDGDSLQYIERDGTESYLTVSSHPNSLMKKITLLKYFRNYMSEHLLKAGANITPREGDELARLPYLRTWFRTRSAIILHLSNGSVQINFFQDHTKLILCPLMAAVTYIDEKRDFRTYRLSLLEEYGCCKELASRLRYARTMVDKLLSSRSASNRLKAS
Property: log10 of IC50 (log10 of the value in nM)
Give log10 of IC50, with IC50 taken in nM.

Q: Identify measured log10 of IC50 associated with CC[C@@H]1C(=O)N(C)c2cnc(Nc3cc(N4CCN(C)CC4)cc(Cl)c3OCCCO)nc2N1C1CCCC1
Ans: 1.30

Q: Please report the measured log10 of IC50 for CC[C@@H]1C(=O)N(C)c2cnc(Nc3cc(N4CCN(C)CC4)ccc3OCCCO)nc2N1C(C)C
Ans: 1.34

Q: Report log10 of IC50, nothing else, for this molecule: CC[C@@H]1C(=O)N(C)c2cnc(Nc3cc(N4CCN(CC)CC4)ccc3OCCCO)nc2N1C1CCCC1
Ans: 1.41

Q: In one line, give reported log10 of IC50 of the entry CC[C@@H]1C(=O)N(C)c2cnc(Nc3cc(N4CCN(C)CC4)cc(Cl)c3OC)nc2N1C1CCCC1 .
Ans: 1.08

Q: In one line, give reported log10 of IC50 of the entry CC[C@@H]1C(=O)N(C)c2cnc(Nc3cc(N4CCN(C)CC4)cc(Cl)c3OCCCO)nc2N1C(C)C .
Ans: 1.30

Q: Supply reported log10 of IC50 belonging to this molecule: CC[C@@H]1C(=O)N(C)c2cnc(Nc3cc(N4CCC(NC(=O)OC(C)(C)C)CC4)ccc3OCCCO)nc2N1C1CCCC1
Ans: 1.99

Q: Report measured log10 of IC50; entry is CC[C@@H]1C(=O)N(C)c2cnc(Nc3cc(N4CCN(C)CC4)cc(F)c3OCCO)nc2N1C(C)C
Ans: 1.48

Q: State its log10 of IC50 for this molecule: CC[C@@H]1C(=O)N(C)c2cnc(Nc3cc(N4CCC(N)CC4)ccc3OC)nc2N1C1CCCC1
Ans: 1.46

Q: Hello, please tell me recorded log10 of IC50 for this one: CC[C@@H]1C(=O)N(C)c2cnc(Nc3cc(N4CCN(C(=O)OC(C)(C)C)CC4)ccc3OCCCO)nc2N1C1CCCC1
Ans: 2.29

Q: Output measured log10 of IC50 for this item: CC[C@@H]1C(=O)N(C)c2cnc(Nc3cc(N4CCN(C)CC4)cc(F)c3OCCCO)nc2N1C(C)C
Ans: 1.20

Q: Look up and report measured log10 of IC50 for this entry: CC[C@@H]1C(=O)N(C)c2cnc(Nc3cc(N4CCN(C)CC4)cc(F)c3OC[C@H](C)O)nc2N1C1CCCC1
Ans: 1.18

Q: Give log10 of IC50 for CC[C@@H]1C(=O)N(C)c2cnc(Nc3cc(N4CCN(C)CC4)cc(F)c3OC)nc2N1C1CCCC1
Ans: 1.04

Q: # return recorded log10 of IC50 for input CC[C@@H]1C(=O)N(C)c2cnc(Nc3cc(N4CCN(C)CC4)cc(Cl)c3OCCO)nc2N1C1CCCC1
Ans: 1.04

Q: Name the recorded log10 of IC50 of the item CC[C@@H]1C(=O)N(C)c2cnc(Nc3cc(N4CCN(C)CC4)ccc3OCCCO)nc2N1C1CCCC1 in your answer.
Ans: 1.30

Q: Quickly give me recorded log10 of IC50 for CC[C@@H]1C(=O)N(C)c2cnc(Nc3cc(N4CCC(N)CC4)ccc3OCCO)nc2N1C1CCCC1
Ans: 1.53

Q: Fill in reported log10 of IC50 for this entry: CC[C@@H]1C(=O)N(C)c2cnc(Nc3cc(N4CCNCC4)ccc3OCCO)nc2N1C1CCCC1
Ans: 1.59
